target: Alpha-1D adrenergic receptor (Homo sapiens, UniProt P25100); experiment: The compound was tested for binding affinity on [3H]- prazosin as specific ligand on Human cloned alpha-1D adrenergic receptor in CHO cells
Sequence (P25100 whole entry): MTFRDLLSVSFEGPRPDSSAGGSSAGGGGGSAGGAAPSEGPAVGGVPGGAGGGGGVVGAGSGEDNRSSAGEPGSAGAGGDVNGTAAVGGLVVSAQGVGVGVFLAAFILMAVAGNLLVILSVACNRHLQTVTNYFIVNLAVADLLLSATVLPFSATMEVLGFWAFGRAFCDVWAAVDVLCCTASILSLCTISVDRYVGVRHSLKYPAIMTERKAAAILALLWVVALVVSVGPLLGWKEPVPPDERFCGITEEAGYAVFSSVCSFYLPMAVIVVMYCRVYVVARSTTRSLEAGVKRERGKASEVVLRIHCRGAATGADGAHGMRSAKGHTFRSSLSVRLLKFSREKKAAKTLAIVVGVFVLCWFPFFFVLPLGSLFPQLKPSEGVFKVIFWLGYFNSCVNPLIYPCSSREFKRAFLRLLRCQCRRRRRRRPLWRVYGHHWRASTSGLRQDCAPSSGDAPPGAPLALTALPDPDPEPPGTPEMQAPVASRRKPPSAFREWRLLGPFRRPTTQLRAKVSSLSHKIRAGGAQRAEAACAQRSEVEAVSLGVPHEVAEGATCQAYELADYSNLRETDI
Metric Name: Ki (nM)

Worked cases, Ki given:
| Structure As Smiles | Metric Name | Obs Value |
| --- | --- | --- |
| COc1ccccc1N1CCN(CCNc2ccc3c4c(=O)n(C)nc(Cl)c4cn3n2)CC1 | Ki | 3.04 |
| COc1ccccc1N1CCN(CCn2nc(-c3ccccc3)c(C(C)=O)c(N)c2=O)CC1 | Ki | 0.93 |

1: Cn1nc(Cl)c2cn3nc(NCCN4CCN(c5ccccc5)CC4)ccc3c2c1=O
2: Cn1nc(Cl)c2cn3nc(NCCN4CCN(c5ccccc5Cl)CC4)ccc3c2c1=O
input: Of 1 and 2 , whose reported Ki is numerically smaller? Answer format: the label of the selected item.
output: 1
(1: 6.56 nM, 2: 11.9 nM)

====

Biological target: Alpha-1B adrenergic receptor (Homo sapiens, UniProt P35368)
Sequence (P35368 whole entry): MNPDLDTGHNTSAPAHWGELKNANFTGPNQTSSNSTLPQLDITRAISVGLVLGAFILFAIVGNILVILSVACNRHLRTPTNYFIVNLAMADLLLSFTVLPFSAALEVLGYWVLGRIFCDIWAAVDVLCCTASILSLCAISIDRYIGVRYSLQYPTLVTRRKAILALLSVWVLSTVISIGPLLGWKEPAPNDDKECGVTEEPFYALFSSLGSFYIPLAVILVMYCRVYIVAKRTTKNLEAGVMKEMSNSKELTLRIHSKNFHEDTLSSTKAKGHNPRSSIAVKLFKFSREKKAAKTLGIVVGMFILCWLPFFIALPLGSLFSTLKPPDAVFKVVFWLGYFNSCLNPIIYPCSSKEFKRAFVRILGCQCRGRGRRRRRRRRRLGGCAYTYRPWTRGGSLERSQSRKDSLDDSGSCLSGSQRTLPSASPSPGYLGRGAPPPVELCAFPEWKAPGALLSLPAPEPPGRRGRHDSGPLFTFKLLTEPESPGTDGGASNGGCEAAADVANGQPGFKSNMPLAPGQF
Assay: The compound was tested for binding affinity on [3H]- prazosin as specific ligand on Human cloned alpha-1B adrenergic receptor in CHO cells
Metric Name: Ki (nM)

These solved cases illustrate the format of a correct answer.
| Structure As Smiles | Unit String | Ki |
| --- | --- | --- |
| Cn1nc(Cl)c2cn3nc(NCCN4CCN(c5ccccc5Cl)CC4)ccc3c2c1=O | nM | 13.6 |
| Cn1nc(Cl)c2cn3nc(NCCN4CCN(c5ccccc5)CC4)ccc3c2c1=O | nM | 15.6 |

A: COc1ccccc1N1CCN(CCn2nc(-c3ccccc3)c(C(C)=O)c(N)c2=O)CC1
B: COc1ccccc1N1CCN(CCNc2ccc3c4c(=O)n(C)nc(Cl)c4cn3n2)CC1
input: Could you please tell me which of these two has the higher Ki: A or B ? Pick one and reply with its label.
output: A
(A: 22.1 nM, B: 15.2 nM)

====

test: Ratio of the binding affinities against 5-HT1A and alpha-1-adrenoceptor from rat brain membranes.; format: cell membranes; details: Membrane
Metric Name: Ratio

Some compounds with known Ratio results, for comparison:
| Structure As Smiles | Obs Value |
| --- | --- |
| COc1ccccc1N1CCN(CCNc2ccc3c4c(=O)n(C)nc(Cl)c4cn3n2)CC1 | 0.22 |
| COc1ccccc1N1CCN(CCn2nc(-c3ccccc3)c(C(C)=O)c(N)c2=O)CC1 | 5.01 |

I: Cn1nc(Cl)c2cn3nc(NCCN4CCN(c5ccccc5Cl)CC4)ccc3c2c1=O
II: Cn1nc(Cl)c2cn3nc(NCCN4CCN(c5ccccc5)CC4)ccc3c2c1=O
input: Which shows the larger Ratio value: I or II ? Bench note: the answer is the label of the chosen record.
output: I
(I: 1.03, II: 0.16)

Where do these numbers come from? They come from ChEMBL document CHEMBL1132200.
